# Test system: HOP-62 NSCLC
# ASSAY NAME: NCI tumour cell line growth inhibition, 48 h; in the data active = GI50 below about 0.43 µM; inactive = the rest
Form entry, call: pick from active, inactive

Recorded test call requested for CN(Cc1cnc2nc(N)nc(N)c2n1)c1c(Cl)cc(C(=O)NC(CCC(=O)O)C(=O)O)cc1Cl (centres undefined)
active

Recorded test call requested for O=C(OCC1=CC(=O)c2ccccc2C1=O)c1ccccc1
inactive

Recorded test call requested for COc1c(OC2OC(C)C(O)C(O)C2O)c(OC)c2oc(-c3ccc(O)cc3)cc(=O)c2c1O (centres undefined)
inactive

Recorded test call requested for CC(C)(C)OC(=O)NCCCCCCCCCCCCn1c2c(c3ccccc3c1=O)C(=O)c1ccccc1-2
inactive

Recorded test call requested for COc1ccc(C(=O)c2ccccc2)c(O)c1
inactive

Recorded test call requested for C=C(CN1CCc2ccccc2C1)c1ccc(CCCC(=O)Nc2ccccc2N)cc1
inactive

Recorded test call requested for CCCCS(=O)(=O)c1cc(Nc2ccc(O)c3c2C(=O)c2ccccc2C3=O)ccc1C
inactive

Recorded test call requested for COc1ccc2c(c1)[n+](=O)c(/C=C/C(=O)c1cc(OC)c(OC)c(OC)c1)c(C)n2[O-]
inactive

Recorded test call requested for COc1ccc(C2=NNC(c3sc(Cl)nc3Cl)C2)cc1 (centres undefined)
inactive

---

Exercise: for every item that follows, state its recorded TGI.
# System: IGROV1 ovarian
# ASSAY NAME: NCI tumour cell line growth inhibition, 48 h

So what's the measured TGI for this one? O=C(C#Cc1ccccc1)NC/C=C/c1ccccc1
> 100 µM

So what's the measured TGI for this one? CC(=O)OC1C2CCC3CC2C2(SCCS2)C31 (stereo not given)
> 100 µM

So what's the measured TGI for this one? Cc1cc(C)c(-c2c(O)c(Br)c(-c3c(C)cc(C)c(Br)c3C)c(O)c2Br)c(C)c1Br
13.9 µM

So what's the measured TGI for this one? CSCCC(NC(=O)C(Cc1c[nH]c2ccccc12)NC(=O)CCNC(=O)OC(C)(C)C)C(=O)NC(CC(=O)O)C(=O)NC(Cc1ccccc1)C(N)=O (stereo not given)
> 50 µM

So what's the measured TGI for this one? Cc1cc(C)nc(NC(=O)COc2ccc(Cl)cc2)c1
> 100 µM

---

# Tested on: BT-549 breast
# ASSAY NAME: NCI tumour cell line growth inhibition, 48 h; in the data active = GI50 below about 0.43 µM; inactive = the rest
Form entry, call: pick from Y = active, N = inactive

Recorded test call requested for CCCCC[C@H]1C/C=C2/C(=O)C=C[C@@H]2C/C=C\CCCC(=O)O1
Y

Recorded test call requested for COc1ccc2c(CN3CCCC[C@H]3O)cc3cc4c(cc3c2c1)OCO4
N

Recorded test call requested for CCOc1ccc2cc(-c3nn(CC4CCN(C)CC4)c4ncnc(N)c34)ccc2c1
N

Recorded test call requested for CN(CCOc1ccc(NS(C)(=O)=O)cc1)CCc1ccc(NS(C)(=O)=O)cc1
N

Recorded test call requested for CC(C)(O)c1cc(Nc2cc(Oc3cn(C4CC4)nc3C3CCOCC3)ccn2)ccn1
N

Recorded test call requested for COc1ccc(-c2cn3ccnc3c(-c3ccc(Cl)cc3)n2)cc1
N

Recorded test call requested for CCOC(=O)c1sc(NC(=O)COc2ccc(/C=C3\CCc4cc(OC)ccc4C3=O)cc2)nc1C
N

Recorded test call requested for O=C(NCc1cn(Cc2cccc(Oc3ccccc3)c2)nn1)c1cccnc1NCc1ccc(Cl)cc1
N

---

Exercise: for every item that follows, state its recorded TGI.
# Test system: CAKI-1 renal
# ASSAY NAME: NCI tumour cell line growth inhibition, 48 h

So what's the measured TGI for this one? OC[C@H]1N[C@H](CO)[C@@H](O)[C@H]1O
> 100 µM

So what's the measured TGI for this one? COc1ccc(-c2csc3c2[N+]2(C)C=CC=C2C3N2CCCC2)cc1 (configuration not stated)
> 100 µM

So what's the measured TGI for this one? O=C1N=C2N=C(c3ccc(Cl)cc3)N(c3ccc(Cl)cc3)N2Sc2ccccc21
> 100 µM

So what's the measured TGI for this one? Cc1cc2ccccc2oc(=O)/c1=N\Nc1ccccc1
> 100 µM

So what's the measured TGI for this one? C=C1C(=O)O[C@@H]2C[C@@H](C)[C@@H]3C=CC(=O)[C@@]3(C)[C@@H](OC(=O)CCCC(=O)O[C@H]3[C@@H]4C(=C)C(=O)O[C@@H]4C[C@@H](C)[C@@H]4C=CC(=O)[C@]43C)[C@H]12
0.187 µM

So what's the measured TGI for this one? C[C@@H]([C@H]1CC[C@@]2(C)[C@@H]3CC[C@@H]4C(=CC3=CC[C@]12C)CC[C@H](N(C)C)C4(C)C)N(C)C
> 100 µM

So what's the measured TGI for this one? CC(=O)N1CCOC12N=NC(C)(C)O2 (configuration not stated)
> 100 µM

So what's the measured TGI for this one? COC(=O)CCCc1nc2ccccc2nc1N=Nc1ccccc1
> 100 µM

So what's the measured TGI for this one? C/C(CC(O)(C(F)(F)F)C(F)(F)F)=N\O
> 10 µM

So what's the measured TGI for this one? CN(C)Cc1cc(/C=C/C(=O)c2ccc(Br)cc2)cc(CN(C)C)c1O
23.8 µM

So what's the measured TGI for this one? CC(=O)c1c(-c2ccco2)c(C#N)c(=S)n(C2OC(CO)C(O)C(O)C2O)c1C (configuration not stated)
> 100 µM

So what's the measured TGI for this one? C/C(=N\Nc1nc2cc(F)ccc2s1)c1ccccn1
5.67 µM

So what's the measured TGI for this one? COc1cccc(C=NC23CC4CC(CC(C4)C2)C3)c1
> 100 µM

So what's the measured TGI for this one? O=C(O)C12C=CC(C1)c1ccccc12 (configuration not stated)
> 100 µM

So what's the measured TGI for this one? CC(=O)/C(=N\N=C(N)N)c1ccccc1
> 100 µM

So what's the measured TGI for this one? COC1CCC(OC)C(c2nc3sccn3c2/C=N/N=C(N)N)C1 (configuration not stated)
> 82.5 µM

So what's the measured TGI for this one? CCOC(=N)CC(=O)Nc1ccccc1CC
> 100 µM

So what's the measured TGI for this one? NCCOCCOCC(=O)O
> 100 µM

So what's the measured TGI for this one? Cn1cc(-c2csc(-c3ccc(Cl)cc3)n2)c2cccnc21
25.6 µM

So what's the measured TGI for this one? CCOC(=O)C(Cc1cc(OC)c(CC(C(=O)OCC)C(=O)OCC)cc1OC)C(=O)OCC
> 100 µM

So what's the measured TGI for this one? CCNC(=O)COc1ccc(Cl)c(C)c1
> 100 µM

So what's the measured TGI for this one? Cc1cc(NS(=O)(=O)c2ccc(Nc3c4ccccc4nc4c(C(=O)NC(CO)(CO)CO)cccc34)cc2)no1
> 100 µM

---

# Tested on: HT29 colon
# ASSAY NAME: NCI tumour cell line growth inhibition, 48 h
QUANTITY KIND: TGI (µM)
Just the number please, in µM, no unit attached.

Request - read-out TGI | tested on HT29 colon | compound COC(=O)C1=C(O)c2cc(OC)c(OC)c(OC)c2C(c2ccc3c(c2)OCO3)[C@@H]1C(=O)OC (stereo not given in full)
12.7

Request - read-out TGI | tested on HT29 colon | compound C[C@H](CCc1nc(C#N)c(N)o1)[C@H]1CC[C@H]2[C@@H]3CCC4C[C@@H](O)CC[C@]4(C)[C@H]3C[C@@H](O)[C@]12C (stereo not given in full)
27.7

Request - read-out TGI | tested on HT29 colon | compound OC(Cc1cccc2ccccc12)CN1CCC(c2ccccc2)CC1 (stereo not given)
25.8

Request - read-out TGI | tested on HT29 colon | compound CCCC(=O)Nc1cc(/C=C/C(=O)N2C[C@@H]3C[C@]34C2=CC(=O)c2[nH]cc(C)c24)n(C)c1
2.77

Request - read-out TGI | tested on HT29 colon | compound CC(=O)c1nc(-c2ccc(C[C@@H](CNC(=O)CN(C)C)NC(=O)c3ccc(OC(C)C)c(Cl)c3)cc2)cn1C
12.5

Request - read-out TGI | tested on HT29 colon | compound Cc1cc(C)c(S(=O)(=O)N(CCCCCN)OCCCN)c(C)c1
27.9

Request - read-out TGI | tested on HT29 colon | compound Nc1ccccc1SC(/C=C/NNC1=NC(c2ccccc2)C(c2ccccc2)=NN1)c1ccccc1 (stereo not given)
34.8

Request - read-out TGI | tested on HT29 colon | compound Fc1ccc(-c2ncn(C3CCNCC3)c2-c2ccnc(Oc3ccc(Cl)cc3)n2)cc1
6.68

Request - read-out TGI | tested on HT29 colon | compound O=C(OCC1=CC(=O)c2ccccc2C1=O)c1ccccc1
37.7

Request - read-out TGI | tested on HT29 colon | compound BrCc1ccc2ccc3ccc(CBr)nc3c2n1
4.61

Request - read-out TGI | tested on HT29 colon | compound CN(C)Cc1cc(/C=C/C(=O)c2ccc(Br)cc2)cc(CN(C)C)c1O
62.4
